Please respond with reported pIC50 for every item in the list.
# System: HL-60
# Procedure Text: Cytotoxicity against human HL60 cells after 69 hrs by MTT assay
# Format: functional, cell-based
# Condition Parameters: HL-60, 69 h
# pIC50: negative log10 of molar concentration; output just the value

Ask | Identify the measured pIC50 of C=C1C(=O)O[C@@]23CC[C@H]4[C@@](C)(CCC[C@]4(C)C(=O)O)[C@@H]2CC[C@@H]1C3 (relative stereo) for HL-60.
Reply | 5.09

Ask | Try `COc1cccc2c1C(=O)c1c(O)c3c(c(O)c1C2=O)C[C@@](O)(C(=O)CO)C[C@@H]3O[C@H]1C[C@H](N)[C@H](O)[C@H](C)O1` next.
Reply | 7.30

Ask | Try `C=C1C(=O)[C@@]23CC[C@H]4[C@@](C)(CCC[C@]4(C)C(=O)O)[C@@H]2CC[C@@H]1C3` next.
Reply | 5.70
